# measured_target: Fuc(a1-2)[Gal(a1-3)]Gal(b1-4)GlcNAc
# method_summary: glycan array binding signal (z-score within array); higher = stronger binding
# applied_conditions: glycan notation: IUPAC condensed, linker removed
The sample as a whole holds a higher share of the strongest signals than the screen did.
property_label: glycan array binding signal (z-score)

- Sp8391B-bot-388-20-388 (Bacteroides ovatus) (protein) GCQNNDENEQHYDNKLFISASNFTKEILFKAGDTNVETGLSVAIAKPEEHDIKVTMSPAPELLSTYKLAYYDETAVLLSEEHYSMPETSTTIKSGSIVSPELPIEFINTGELDIKTTYVLPVTIKSVEGIGVLQSAKTYYYVFRGASLINVVCNISRNRAYPDFKNDSKFNNLTENTMEILFKANSFPNTLNTLMGIESNYLLRIGDATIPNNQLQVATSVNNCTSADLQLESGKWYHVAVAFNKGNVKVYINGVEKLSGSTGKSSVSLGAKHTNEEDGSRCFWVGYSYKDDRYFDGVVSEVRIWNRALTAEEIQATNHFYTIEPESEGLIAYWKFDEGSGTVAKDYSVSGYDLTIEKEPKWESVSLPQ: -0.199
